Target: rat MCH1 receptor (Rattus norvegicus)
Construct: expressed in transfected cells
Assay: Binding affinity (Ki) at the rat MCH1 receptor
measured endpoint: pKi
Give bare numbers, as −log10 of the molar value.

{"compound": "CC(C)C(=O)Nc1cccc(C2CCN(CC[C@H](Oc3ccccc3)c3ccccc3)CC2)c1 [Example 105]", "pKi": 8.15}

Next up:
stdin: Any idea what pKi was measured for CC(C)C(=O)Nc1cccc(C2CCN(CC[C@@H](Oc3ccccc3)c3ccccc3)CC2)c1 [Example 112] ?
stdout: 7.65

###

Molecular target: human NPY5 receptor (Homo sapiens, UniProt Q15761)
Construct: expressed in transfected cells
Sequence (Q15761 1-445): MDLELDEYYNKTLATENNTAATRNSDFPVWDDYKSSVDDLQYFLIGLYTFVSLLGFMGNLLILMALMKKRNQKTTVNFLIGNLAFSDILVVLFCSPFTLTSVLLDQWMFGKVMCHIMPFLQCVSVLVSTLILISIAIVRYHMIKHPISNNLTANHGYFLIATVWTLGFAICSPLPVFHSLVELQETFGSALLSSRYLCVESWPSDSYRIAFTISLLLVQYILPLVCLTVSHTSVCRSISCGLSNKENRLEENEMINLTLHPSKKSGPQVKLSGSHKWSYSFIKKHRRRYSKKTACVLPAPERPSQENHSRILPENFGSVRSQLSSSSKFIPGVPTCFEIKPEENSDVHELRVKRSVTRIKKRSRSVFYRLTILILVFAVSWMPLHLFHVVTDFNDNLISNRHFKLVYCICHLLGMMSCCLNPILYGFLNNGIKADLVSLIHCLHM
Assay: Binding affinity at the human NPY5 receptor
Structures can show the parent of a compound that is named as a salt.
Please respond with reported Ki for every item in the list.

As a guide, the following entries are already answered.
{"compound": "COC(=O)C1=C(C)NC(=O)N(C(=O)NCCCN2CCC3(CC2)OCc2ccccc23)C1c1ccc2nonc2c1 (single isomer, unassigned) [Example 18, HYDROCHLORIDE]", "reading": "> 50 µM"}
{"compound": "O=C(CCCN1CCC(O)(c2ccc(Cl)cc2)CC1)c1ccc(Cl)cc1 [Example 29]", "reading": "46.1 µM"}

Next up:
stdin: Any idea what Ki was measured for COC(=O)C1=C(C)NC(=O)N(C(=O)NCCCN2CCC3(CC2)OCc2ccccc23)C1c1ccc(F)c(F)c1 (stereo not drawn) [Example 20] ?
stdout: > 50 µM

###

Target: human NPY1 receptor (Homo sapiens, UniProt P25929)
Construct: expressed in transfected cells
Sequence (P25929 whole entry): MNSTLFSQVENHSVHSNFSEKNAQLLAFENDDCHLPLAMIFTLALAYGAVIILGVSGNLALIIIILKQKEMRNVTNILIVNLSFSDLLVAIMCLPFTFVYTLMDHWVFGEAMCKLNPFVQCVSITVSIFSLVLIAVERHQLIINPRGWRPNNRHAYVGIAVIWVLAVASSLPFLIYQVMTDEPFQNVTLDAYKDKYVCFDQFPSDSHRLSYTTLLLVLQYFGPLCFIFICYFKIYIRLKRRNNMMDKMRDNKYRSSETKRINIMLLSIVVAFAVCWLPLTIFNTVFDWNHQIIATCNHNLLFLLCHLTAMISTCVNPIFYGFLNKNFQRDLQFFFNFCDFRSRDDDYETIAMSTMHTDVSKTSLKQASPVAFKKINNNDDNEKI
Assay: Binding affinity at the human NPY1 receptor
Conditions: read-out: hMPY1 Ki; Table 3a
measured endpoint: Ki (µM)
Numbers only, in µM.

stdin: Any idea what Ki was measured for COC(=O)C1=C(C)NC(=O)N(C(=O)NCCCN2CCC3(CC2)OCc2ccccc23)C1c1ccc(F)c(F)c1 (stereo not shown) [Example 20] ?
stdout: 27.1

###

Target: human GALR2 receptor (Homo sapiens)
Construct: expressed in transfected cells
Sequence (O43603 1-387): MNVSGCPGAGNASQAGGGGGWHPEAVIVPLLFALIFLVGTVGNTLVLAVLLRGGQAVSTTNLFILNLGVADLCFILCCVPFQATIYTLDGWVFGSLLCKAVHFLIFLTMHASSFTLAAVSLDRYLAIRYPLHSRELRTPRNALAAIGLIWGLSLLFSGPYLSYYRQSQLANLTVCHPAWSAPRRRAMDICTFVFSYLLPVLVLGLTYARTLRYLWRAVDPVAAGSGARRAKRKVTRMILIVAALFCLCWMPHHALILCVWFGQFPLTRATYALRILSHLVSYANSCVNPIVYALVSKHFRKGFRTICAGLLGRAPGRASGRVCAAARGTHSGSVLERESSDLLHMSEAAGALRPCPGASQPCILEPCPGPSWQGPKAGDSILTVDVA
Test: Binding affinity at the human GALR2 receptor
Settings: Table 3b; read-out: hGALR2 Ki
Structures can show the parent of a compound that is named as a salt.
Please respond with reported Ki for every item in the list.

As a guide, the following entries are already answered.
{"molecule": "COCC1=C(C(=O)OC)C(c2ccc(F)c(F)c2)N(C(=O)NCCCN2CCC(c3cccc(NC(C)=O)c3)CC2)C(=O)N1 (single isomer, unassigned; (-)) [Example 1]", "measured target": "human GALR2 receptor (Homo sapiens)", "Ki": "> 50 µM"}
{"molecule": "COCC1=C(C(=O)OC)[C@H](c2ccc(F)c(F)c2)N(C(=O)NCCCN2CCC(c3cccc(NC(C)=O)c3)CC2)C(=O)N1 [Example 10]", "measured target": "human GALR2 receptor (Homo sapiens)", "Ki": "> 50 µM"}
{"molecule": "CCC1=C(C(=O)O)C(c2ccc(F)c(F)c2)N(C(=O)NCCCN2CCC3(CC2)OCc2ccccc23)C(=O)N1 (single isomer, unassigned; (+)) [Example 4, HYDROCHLORIDE]", "measured target": "human GALR2 receptor (Homo sapiens)", "Ki": "> 50 µM"}
{"molecule": "CCCCN(CCCC)c1ccc(CNC[C@H]2CC[C@H](NC(=O)c3cccc4ccccc34)CC2)cc1 [Example 13]", "measured target": "human GALR2 receptor (Homo sapiens)", "Ki": "4.73 µM"}
{"molecule": "CCCCN(CCCC)c1ccc(CN2CCC(CNC(=O)N3C(=O)NC(C)=C(C(=O)OC)C3c3ccc4nonc4c3)CC2)cc1 (stereo not drawn) [Example 6]", "measured target": "human GALR2 receptor (Homo sapiens)", "Ki": "14.9 µM"}

stdin: Any idea what Ki was measured for COCC1=C(C(=O)OC)C(c2ccc(F)c(F)c2)N(C(=O)NCCCN2CC=C(c3cccc(NC(C)=O)c3)CC2)C(=O)N1 (stereo not drawn) [Example 2] ?
stdout: > 50 µM

###

Target: human GALR1 receptor (Homo sapiens, UniProt P47211)
Construct: expressed in transfected cells
Sequence (P47211 whole entry): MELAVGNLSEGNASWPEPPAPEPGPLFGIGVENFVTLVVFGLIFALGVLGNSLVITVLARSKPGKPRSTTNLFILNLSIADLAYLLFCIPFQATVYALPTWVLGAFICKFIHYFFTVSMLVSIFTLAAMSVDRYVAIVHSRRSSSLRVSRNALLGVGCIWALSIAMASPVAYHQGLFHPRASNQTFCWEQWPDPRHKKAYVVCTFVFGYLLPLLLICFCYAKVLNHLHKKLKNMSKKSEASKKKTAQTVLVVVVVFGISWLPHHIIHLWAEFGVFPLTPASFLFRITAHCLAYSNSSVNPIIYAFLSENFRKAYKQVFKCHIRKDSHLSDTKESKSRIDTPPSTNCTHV
Assay: Binding affinity at the human GALR1 receptor
Structures can show the parent of a compound that is named as a salt.
measured endpoint: Ki

Please report Ki for every entry that follows.
1. COC(=O)C1=C(C)NC(=O)N(C(=O)NCCCN2CCC3(CC2)OCc2ccccc23)C1c1ccc2nonc2c1 (single isomer, unassigned) [Example 18, HYDROCHLORIDE]
2. O=C(CCCN1CCC(O)(c2ccc(Cl)cc2)CC1)c1ccc(Cl)cc1
3. COC(=O)C1=C(C)NC(=O)N(C(=O)NCCCN2CCC3(CC2)OCc2ccccc23)C1c1ccc(F)c(F)c1 (stereo not drawn)

stdout:
1. > 50 µM
2. > 50 µM
3. > 50 µM

###

Target: rat 5HT2C receptor (Rattus norvegicus, UniProt P08909)
Construct: expressed in transfected cells
Sequence (P08909 33-460): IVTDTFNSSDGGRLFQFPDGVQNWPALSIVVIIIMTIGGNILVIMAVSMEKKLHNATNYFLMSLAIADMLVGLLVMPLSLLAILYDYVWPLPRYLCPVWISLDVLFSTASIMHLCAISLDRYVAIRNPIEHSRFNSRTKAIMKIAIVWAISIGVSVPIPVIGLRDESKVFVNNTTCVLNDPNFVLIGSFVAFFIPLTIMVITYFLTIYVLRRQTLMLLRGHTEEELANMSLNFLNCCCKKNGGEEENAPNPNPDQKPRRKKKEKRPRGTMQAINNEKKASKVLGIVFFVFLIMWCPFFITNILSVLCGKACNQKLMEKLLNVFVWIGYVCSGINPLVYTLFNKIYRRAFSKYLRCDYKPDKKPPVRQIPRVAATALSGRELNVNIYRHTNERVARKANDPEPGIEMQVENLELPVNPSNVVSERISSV
Experiment: Binding affinity at the rat 5HT2C receptor
measured endpoint: Ki

stdin: Find Ki (rat 5HT2C receptor (Rattus norvegicus, UniProt P08909)) for the entry `O=C(CCCN1CCC(O)(c2ccc(Cl)cc2)CC1)c1ccc(Cl)cc1`
stdout: > 50 µM

###

Biological target: human Dopamine D2 receptor (Homo sapiens, UniProt P14416)
Construct: purchased BioSignal, Inc. (Montreal, Canada)
Sequence (P14416 whole entry): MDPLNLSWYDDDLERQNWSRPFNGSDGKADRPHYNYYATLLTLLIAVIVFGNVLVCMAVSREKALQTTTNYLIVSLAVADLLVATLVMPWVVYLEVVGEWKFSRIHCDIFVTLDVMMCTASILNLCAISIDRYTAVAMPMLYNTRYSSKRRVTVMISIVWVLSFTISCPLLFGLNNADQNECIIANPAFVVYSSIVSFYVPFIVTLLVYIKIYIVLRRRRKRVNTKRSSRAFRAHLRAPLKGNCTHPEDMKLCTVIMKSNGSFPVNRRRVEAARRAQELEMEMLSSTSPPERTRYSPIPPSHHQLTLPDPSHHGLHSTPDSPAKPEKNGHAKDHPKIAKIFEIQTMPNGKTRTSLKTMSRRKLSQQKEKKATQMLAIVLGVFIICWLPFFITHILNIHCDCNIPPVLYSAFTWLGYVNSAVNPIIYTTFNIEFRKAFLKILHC
Test: Binding affinity at the human dopamine D2 receptor
Settings: Table 3d; * = >50000; read-out: hD2 Ki
Where a name gives a salt, the structure may show the parent alone.
measured endpoint: pKi
Answers are plain numbers, as −log10 of the molar value.

stdin: Find pKi (human Dopamine D2 receptor (Homo sapiens, UniProt P14416)) for the entry COC(=O)C1=C(C)NC(=O)N(C(=O)NCCCN2CCC3(CC2)OCc2ccccc23)C1c1ccc2nonc2c1 (single isomer, unassigned) [Example 18, HYDROCHLORIDE]
stdout: 6.20

###

Please respond with reported Ki for every item in the list.
Molecular target: rat MCH1 receptor (Rattus norvegicus, UniProt P97639)
Construct: expressed in transfected cells
Sequence (P97639 whole entry): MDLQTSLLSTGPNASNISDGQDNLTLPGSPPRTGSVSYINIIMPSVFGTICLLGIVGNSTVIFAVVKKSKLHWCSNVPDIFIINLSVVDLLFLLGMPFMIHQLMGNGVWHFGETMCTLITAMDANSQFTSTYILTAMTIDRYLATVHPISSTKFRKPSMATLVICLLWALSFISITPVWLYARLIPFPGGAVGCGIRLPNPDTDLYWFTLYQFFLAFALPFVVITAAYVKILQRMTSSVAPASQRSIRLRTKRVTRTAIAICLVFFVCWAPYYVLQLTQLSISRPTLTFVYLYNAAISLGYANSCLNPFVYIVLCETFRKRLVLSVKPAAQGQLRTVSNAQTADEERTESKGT
Assay: Binding affinity (Ki) at the rat MCH1 receptor
Conditions: Table 3c; read-out: rMCH1 Ki
Give the value; after it, write the unit.

As a guide, the following entries are already answered.
{"compound": "COc1ccc(O[C@H](CCN2CCC(c3ccc(NC(=O)C(C)C)cc3)CC2)c2ccccc2)cc1OC [Example 140]", "reading": "121 nM"}
{"compound": "CC(=O)Nc1cccc(C2CCN(CCCNC(=O)N3C(=O)OC[C@@H]3c3cc(F)c(F)c(F)c3)CC2)c1 [Example 129]", "reading": "22.3 nM"}
{"compound": "O=C(Cc1ccccc1)Nc1cccc(C2CCN(CCCC(=O)c3ccccc3)CC2)c1 [Example 75]", "reading": "506 nM"}

stdin: Any idea what Ki was measured for CC(=O)Nc1cccc(C2CCN(CCCC(=O)c3ccccc3)CC2)c1 [Example 73] ?
stdout: 342 nM

###

Target: human Histamine H1 receptor (Homo sapiens, UniProt P35367)
Construct: expressed in transfected cells
Sequence (P35367 whole entry): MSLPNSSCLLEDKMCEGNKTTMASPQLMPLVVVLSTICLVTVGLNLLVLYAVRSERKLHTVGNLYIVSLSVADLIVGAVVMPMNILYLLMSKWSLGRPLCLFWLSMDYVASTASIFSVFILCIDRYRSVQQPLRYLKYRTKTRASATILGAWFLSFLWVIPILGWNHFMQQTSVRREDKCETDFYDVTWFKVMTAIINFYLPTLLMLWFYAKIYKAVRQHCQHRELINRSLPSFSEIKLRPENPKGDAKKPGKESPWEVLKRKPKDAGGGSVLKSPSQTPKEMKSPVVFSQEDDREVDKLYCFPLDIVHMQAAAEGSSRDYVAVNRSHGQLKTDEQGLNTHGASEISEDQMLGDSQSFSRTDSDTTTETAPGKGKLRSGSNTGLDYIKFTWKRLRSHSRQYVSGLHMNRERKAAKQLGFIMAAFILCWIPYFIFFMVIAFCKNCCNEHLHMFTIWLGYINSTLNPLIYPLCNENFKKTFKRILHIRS
Assay: Binding affinity at the human histamine H1 receptor
Details: Table 3e; read-out: hH1 Ki
From the text: Other receptors: Cell membranes expressing human dopamine D1, D2, D4 and rat D3 receptors were purchased through BioSignal, Inc. (Montreal, Canada). Binding assays using the histamine H1 receptor; dopamine receptors; and α1A, α1B, and α2 adrenergic receptors may be carried out according to the procedures described in U.S. Pat. No. 5,780,485, the disclosure of which is hereby incorporated by reference in its entirety into this application. […]
measured endpoint: Ki (µM)
One number for each entry, in µM.

stdin: Any idea what Ki was measured for COCC1=C(C(=O)OC)[C@H](c2ccc(F)c(F)c2)N(C(=O)NCCCN2CCC(c3cccc(NC(C)=O)c3)CC2)C(=O)N1 [Example 10] ?
stdout: 4.88
